# TESTED SYSTEM: HCV NS3 helicase NS3h_1b(con1) (Hepatitis C virus genotype 1b, UniProt Q9WMX2)
# Construct: truncated C-terminally His-tagged NS3 proteins lacking the N-terminal protease, called NS3h; His-tag (C); made in house
# Sequence (Q9WMX2 1192-1657): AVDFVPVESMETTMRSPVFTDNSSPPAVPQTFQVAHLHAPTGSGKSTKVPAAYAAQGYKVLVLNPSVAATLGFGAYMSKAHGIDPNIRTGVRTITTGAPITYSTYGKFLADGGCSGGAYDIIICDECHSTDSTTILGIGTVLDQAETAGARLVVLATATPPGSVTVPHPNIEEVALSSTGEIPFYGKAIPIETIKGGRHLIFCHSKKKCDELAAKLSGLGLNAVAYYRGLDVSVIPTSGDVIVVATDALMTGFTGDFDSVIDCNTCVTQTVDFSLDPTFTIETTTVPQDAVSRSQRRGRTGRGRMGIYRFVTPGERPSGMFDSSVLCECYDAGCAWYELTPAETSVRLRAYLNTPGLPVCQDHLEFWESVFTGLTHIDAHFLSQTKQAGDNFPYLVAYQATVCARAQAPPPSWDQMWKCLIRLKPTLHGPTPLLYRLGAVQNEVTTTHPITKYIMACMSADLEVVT
# PROTOCOL DESCRIPTION: MBHA screen of NCI mechanistic set library at 20 μM (percent inhibition, compound interference)
# Format: biochemical
# COND: compounds at 20 μM, MBHA with DNA substrate; calculated from Equation 1
PROPERTY LABEL: Inh. (%) (Inhibition)
Please respond with the number in % and leave the unit unwritten.

Below, each entry is followed by its recorded Inh. (%) (Inhibition) result.
The reported Inh. (%) (Inhibition) of the compound CC1C(Oc2c(-c3ccc(O)c(O)c3)oc3c(O)cc(O)cc3c2=O)OC(O)C(O)C1O (stereo not drawn) was −13.8

The reported Inh. (%) (Inhibition) of the compound O=C(CC1(O)C(=O)Nc2c(Cl)cc(Cl)cc21)c1cccc2ccccc12 (stereo not drawn) was 2.5

The reported Inh. (%) (Inhibition) of the compound COC(C(=O)C(O)C(C)O)C1Cc2cc3cc(OC4CC(OC5CC(O)C(O)C(C)O5)C(O)C(C)O4)c(C)c(O)c3c(O)c2C(=O)C1OC1CC(OC2CC(OC3CC(O)C(OC)C(C)O3)C(O)C(C)O2)C(O)C(C)O1 (stereo not drawn) was 15.0

The reported Inh. (%) (Inhibition) of the compound CCC[CH2][Sn]1([CH2]CCC)[S]CC[N]1S(=O)(=O)c1ccc(C)cc1 was 13.3

The reported Inh. (%) (Inhibition) of the compound C[n+]1c(-c2ccc(/C=C/C=N/NC(=O)c3ccc(C(=O)N/N=C/C=C/c4ccc(-c5cn6ccccc6[n+]5C)cc4)cc3)cc2)cn2ccccc21.Cc1ccc(S(=O)(=O)O)cc1 was 26.2

Next item in the queue.
The reported Inh. (%) (Inhibition) of the compound CCOC(=O)Cc1cc(=O)oc2cc(O)ccc12 was 12.3

* * *

Some compounds, each annotated with its measured Cell Viability (% @ 10 μM).
# Test system: Huh-7.5 cells
# PROTOCOL DESCRIPTION: Cell viability assay ([…]-GLO)
# Type: cell-based, human
# COND: 10 μM
Please respond with the number in % and leave the unit unwritten.

Below, each entry is followed by its recorded Cell Viability (% @ 10 μM) result.
The reported Cell Viability (% @ 10 μM) of the compound Cc1ccc2nc(-c3ccc(NC(=O)c4ccc(N)cc4)cc3)sc2c1S(=O)(=O)O was 103

The reported Cell Viability (% @ 10 μM) of the compound Cc1ccc2nc(-c3ccc4nc(-c5ccc(NC(=O)c6ccc(Cl)c(Cl)c6)cc5)sc4c3)sc2c1S(=O)(=O)O was 114

The reported Cell Viability (% @ 10 μM) of the compound Cc1ccc2nc(-c3ccc4nc(-c5ccc(NC(=O)c6ccc(F)cc6)cc5)sc4c3)sc2c1S(=O)(=O)O.N was 94

The reported Cell Viability (% @ 10 μM) of the compound Cc1ccc2nc(-c3ccc(NC(=O)c4ccc(NC(=O)c5ccc(N)cc5)cc4)cc3)sc2c1S(=O)(=O)O.N was 112

The reported Cell Viability (% @ 10 μM) of the compound Cc1ccc2nc(-c3ccc4nc(-c5ccc(NC(=O)c6ccc(N(C)C)cc6)cc5)sc4c3)sc2c1S(=O)(=O)O was 94

Continuing:
The reported Cell Viability (% @ 10 μM) of the compound Cc1ccc2nc(-c3ccc4nc(-c5ccc(NS(=O)(=O)c6ccc(C(F)(F)F)cc6)cc5)sc4c3)sc2c1S(=O)(=O)O was 101

The reported Cell Viability (% @ 10 μM) of the compound Cc1ccc2nc(-c3ccc4nc(-c5ccc(NC(=O)c6ccc(CNC(=O)OCC7c8ccccc8-c8ccccc87)cc6)cc5)sc4c3)sc2c1S(=O)(=O)O.N was 102
